These entries and their values trace back to the NIST ThermoML archive (doi:10.1016/j.jct.2013.09.041).

settings: 323.15 K; 101.33 kPa; Liquid; Sing-around technique in a fixed-path interferometer
measurement_type: speed of sound (m/s)

| molecule | endpoint_unit | number |
| --- | --- | --- |
| CCCCCO [pentan-1-ol] | m/s | 1192.9 |
| CC(C)O [propan-2-ol] | m/s | 1050.9 |
| CCCCO [butan-1-ol] | m/s | 1157.3 |
| CCCCCCn1cc[n+](C)c1.O=S(=O)([O-])C(F)(F)F [1-hexyl-3-methylimidazolium trifluoromethanesulfonate] | m/s | 1327.2 |
| CCCO [propan-1-ol] | m/s | 1121.8 |
| CCC(C)O (stereo unspecified) [butan-2-ol] | m/s | 1120.2 |

----------
settings: 323.15 K; 101.33 kPa; Liquid; Vibrating tube method
measurement_type: mass density (kg/m3)

| compound | endpoint_unit | mass density |
| --- | --- | --- |
| CC(C)O | kg/m3 | 758.63 |
| CCCCCO | kg/m3 | 792.14 |
| CCCCCCn1cc[n+](C)c1.O=S(=O)([O-])C(F)(F)F [1-hexyl-3-methylimidazolium trifluoromethanesulfonate] | kg/m3 | 1217.24 |
| CCC(C)O (stereo unspecified) | kg/m3 | 780.4 |
| CCCO | kg/m3 | 779.09 |
| CCCCO | kg/m3 | 786.32 |
